Numbers sourced from patent US20160319032A1.

Assay 2 % Inhibition of adhesion for assorted binders
# Study system: human αVβ6 integrin on cells (human, UniProt P06756 31-1048; P18564 22-788)
# Sequence (P06756 31-1048, chain 1 of 2): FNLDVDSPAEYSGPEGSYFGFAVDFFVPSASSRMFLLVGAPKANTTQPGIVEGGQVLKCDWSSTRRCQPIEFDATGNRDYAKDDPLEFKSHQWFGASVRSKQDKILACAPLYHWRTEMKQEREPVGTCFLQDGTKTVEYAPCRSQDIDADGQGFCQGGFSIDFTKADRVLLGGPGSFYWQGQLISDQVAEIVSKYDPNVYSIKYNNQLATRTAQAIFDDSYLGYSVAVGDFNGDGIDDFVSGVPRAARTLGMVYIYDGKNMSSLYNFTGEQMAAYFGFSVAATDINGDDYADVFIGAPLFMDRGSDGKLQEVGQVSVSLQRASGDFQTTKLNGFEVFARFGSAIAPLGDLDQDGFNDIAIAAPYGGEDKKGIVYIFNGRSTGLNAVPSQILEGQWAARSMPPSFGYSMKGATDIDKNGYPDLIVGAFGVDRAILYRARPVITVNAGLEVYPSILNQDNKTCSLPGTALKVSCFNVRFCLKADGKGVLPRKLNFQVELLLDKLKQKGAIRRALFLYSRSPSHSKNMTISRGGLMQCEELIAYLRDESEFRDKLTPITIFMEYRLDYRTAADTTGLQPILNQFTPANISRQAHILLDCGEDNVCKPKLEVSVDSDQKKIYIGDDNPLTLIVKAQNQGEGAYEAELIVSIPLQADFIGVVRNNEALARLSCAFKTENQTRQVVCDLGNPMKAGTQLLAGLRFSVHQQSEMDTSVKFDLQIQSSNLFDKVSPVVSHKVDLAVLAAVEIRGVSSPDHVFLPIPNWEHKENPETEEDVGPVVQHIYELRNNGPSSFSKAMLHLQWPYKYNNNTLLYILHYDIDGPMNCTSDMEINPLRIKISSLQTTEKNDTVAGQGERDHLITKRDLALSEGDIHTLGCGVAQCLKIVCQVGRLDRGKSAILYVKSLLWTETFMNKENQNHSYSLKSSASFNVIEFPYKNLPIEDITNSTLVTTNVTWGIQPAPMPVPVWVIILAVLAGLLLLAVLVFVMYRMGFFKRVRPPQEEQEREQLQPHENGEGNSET
# Sequence (P18564 22-788, chain 2 of 2): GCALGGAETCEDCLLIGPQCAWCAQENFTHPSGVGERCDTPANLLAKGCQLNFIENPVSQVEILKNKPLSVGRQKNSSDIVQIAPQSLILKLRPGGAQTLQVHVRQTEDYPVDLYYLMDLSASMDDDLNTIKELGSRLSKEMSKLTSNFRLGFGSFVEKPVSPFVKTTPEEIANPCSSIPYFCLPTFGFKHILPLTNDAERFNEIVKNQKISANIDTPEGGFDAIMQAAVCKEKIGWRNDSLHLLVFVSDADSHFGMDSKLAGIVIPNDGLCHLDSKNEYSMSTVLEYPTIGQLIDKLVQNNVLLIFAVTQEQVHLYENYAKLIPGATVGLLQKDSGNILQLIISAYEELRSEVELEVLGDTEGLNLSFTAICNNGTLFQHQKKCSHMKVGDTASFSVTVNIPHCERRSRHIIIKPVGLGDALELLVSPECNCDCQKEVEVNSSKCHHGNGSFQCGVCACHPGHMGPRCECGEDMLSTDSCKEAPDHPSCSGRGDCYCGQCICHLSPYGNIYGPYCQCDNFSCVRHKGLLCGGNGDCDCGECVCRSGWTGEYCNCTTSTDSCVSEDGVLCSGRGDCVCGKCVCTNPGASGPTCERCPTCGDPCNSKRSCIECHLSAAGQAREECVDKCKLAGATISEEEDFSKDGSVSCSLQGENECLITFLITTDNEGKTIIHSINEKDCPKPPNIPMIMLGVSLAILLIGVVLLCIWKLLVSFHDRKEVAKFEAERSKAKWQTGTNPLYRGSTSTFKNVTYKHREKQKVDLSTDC
# Test: cell-based or functional assay
Kindly provide the numeric value in % only, without the unit symbol.

Below, each entry is followed by its recorded Assay 2 % Inhibition of adhesion result.
{"columns": ["Binder", "Assay 2 % Inhibition of adhesion (%)"],
 "data": [
  ["sc 277 (antibody, V domains shown, lambda light chain) VH: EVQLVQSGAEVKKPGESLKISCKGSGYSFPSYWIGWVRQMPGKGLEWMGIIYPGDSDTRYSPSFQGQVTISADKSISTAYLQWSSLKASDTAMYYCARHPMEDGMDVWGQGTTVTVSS VL: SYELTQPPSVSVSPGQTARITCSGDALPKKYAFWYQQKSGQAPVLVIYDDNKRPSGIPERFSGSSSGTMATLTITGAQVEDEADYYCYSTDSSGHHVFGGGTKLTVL", 101],
  ["sc 188 (antibody, V domains shown, kappa light chain) VH: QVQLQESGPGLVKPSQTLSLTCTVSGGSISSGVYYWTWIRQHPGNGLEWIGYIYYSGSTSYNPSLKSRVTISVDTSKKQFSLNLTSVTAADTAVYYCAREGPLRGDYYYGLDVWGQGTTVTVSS VL: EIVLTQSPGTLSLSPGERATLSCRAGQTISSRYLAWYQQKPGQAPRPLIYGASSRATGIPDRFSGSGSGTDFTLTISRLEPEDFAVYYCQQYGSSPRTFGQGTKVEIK", 103],
  ["sc 161 (antibody, V domains shown, kappa light chain) VH: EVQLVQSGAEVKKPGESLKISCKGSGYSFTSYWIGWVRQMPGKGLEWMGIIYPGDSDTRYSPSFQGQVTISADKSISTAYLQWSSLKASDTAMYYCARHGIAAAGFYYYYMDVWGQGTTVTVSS VL: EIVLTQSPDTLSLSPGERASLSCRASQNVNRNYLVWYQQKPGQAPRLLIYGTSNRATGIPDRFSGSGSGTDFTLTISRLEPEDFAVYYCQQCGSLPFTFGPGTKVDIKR", 106]
]}

Next item in the queue.
Query (binder): sc 298 (antibody, V domains shown, lambda light chain) VH: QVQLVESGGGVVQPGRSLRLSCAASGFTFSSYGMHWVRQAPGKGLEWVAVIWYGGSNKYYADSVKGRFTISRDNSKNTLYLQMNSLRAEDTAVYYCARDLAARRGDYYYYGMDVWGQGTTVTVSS VL: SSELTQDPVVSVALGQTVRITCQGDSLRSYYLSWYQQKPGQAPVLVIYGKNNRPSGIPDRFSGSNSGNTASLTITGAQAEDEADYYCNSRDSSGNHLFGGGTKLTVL ; field requested: Assay 2 % Inhibition of adhesion 102
